- TARGET ENTITY: T1, recombinant human ROR1 extracellular domain (human, UniProt Q01973 30-406)
- T1 construct: biotinylated for the filter lifts; also called huROR1-ECD; human ROR1-ECD
- T1 sequence (Q01973 30-406 limits assumed): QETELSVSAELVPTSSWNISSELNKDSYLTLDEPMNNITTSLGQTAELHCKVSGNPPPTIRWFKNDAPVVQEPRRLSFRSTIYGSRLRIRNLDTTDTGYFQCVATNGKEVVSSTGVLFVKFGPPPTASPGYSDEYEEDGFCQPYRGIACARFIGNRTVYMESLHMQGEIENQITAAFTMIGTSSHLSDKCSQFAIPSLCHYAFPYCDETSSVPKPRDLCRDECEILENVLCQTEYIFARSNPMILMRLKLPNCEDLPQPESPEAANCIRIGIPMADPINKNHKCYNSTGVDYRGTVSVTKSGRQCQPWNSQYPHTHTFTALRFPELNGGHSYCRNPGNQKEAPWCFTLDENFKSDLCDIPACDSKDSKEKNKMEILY
- ASSAY TEXT: ELISA with prolonged wash, soluble Fab on coated huROR1-ECD
OBSERVATION TYPE: Kd
Write down the value, and be sure its unit follows.

As a guide, the following entries are already answered.
Ab1 Fab variant H1 T32A + H2 F58I (Fab, V domains shown, Fab) VH: QVQLQESGPGLVKPSQTLSLTCTVSGYAFAAYNIHWVRQAPGQGLEWMGSIDPYDGGSSYNQKFKDRLTISKDTSKNQVVLTMTNMDPVDTATYYCARGWYYFDYWGHGTLVTVSS VL: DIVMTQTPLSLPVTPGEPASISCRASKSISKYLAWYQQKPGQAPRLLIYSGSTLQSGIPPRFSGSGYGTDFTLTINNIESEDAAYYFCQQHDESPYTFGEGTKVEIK : 4.5 nM
Ab1 Fab variant H1 T32A + H2 F58V, S69V, N71H (Fab, V domains shown, Fab) VH: QVQLQESGPGLVKPSQTLSLTCTVSGYAFAAYNIHWVRQAPGQGLEWMGSVDPYDGGSVYHQKFKDRLTISKDTSKNQVVLTMTNMDPVDTATYYCARGWYYFDYWGHGTLVTVSS VL: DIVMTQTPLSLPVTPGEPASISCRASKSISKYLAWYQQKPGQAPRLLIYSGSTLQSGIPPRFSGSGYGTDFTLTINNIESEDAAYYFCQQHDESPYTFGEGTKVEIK : 3.9 nM

// next item, Kd requested
Report Kd for Ab1 Fab variant H1 T32A + H2 F58V (Fab, V domains shown, Fab) VH: QVQLQESGPGLVKPSQTLSLTCTVSGYAFAAYNIHWVRQAPGQGLEWMGSVDPYDGGSSYNQKFKDRLTISKDTSKNQVVLTMTNMDPVDTATYYCARGWYYFDYWGHGTLVTVSS VL: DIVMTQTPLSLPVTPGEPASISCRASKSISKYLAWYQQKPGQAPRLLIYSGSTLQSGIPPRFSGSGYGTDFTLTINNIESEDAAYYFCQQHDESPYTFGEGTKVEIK please. 3.2 nM
